I'd be grateful if you could share measured EE for these entries.
Test: Characterization of lipid nanoparticles encapsulating Fluc-mRNA prepared from different cap structures
Type: physicochemical
Conditions: encapsulation efficiency of LNP with Fluc-mRNA transcribed using the named cap analog
Please format your answer as a value with the unit trailing.

Before answering, review these 2 worked examples.
CO[C@@H]1[C@H](OP(=O)(O)OC[C@H]2O[C@@H](n3cnc4c(=O)[nH]c(N)nc43)[C@H](O)[C@@H]2O)[C@@H](COP(=O)(O)OP(=O)(O)OP(=O)(O)OC[C@@]2(C(F)F)O[C@@H]([n+]3cn(C)c4c(=O)[nH]c(N)nc43)[C@H](O)[C@@H]2O)O[C@H]1n1cnc2c(N)ncnc21 ... 94.6%
CO[C@@H]1[C@H](OP(=O)(O)OC[C@H]2O[C@@H](n3cnc4c(=O)[nH]c(N)nc43)[C@H](O)[C@@H]2O)[C@@H](COP(=O)(O)OP(=O)(O)OP(=O)(O)OC[C@@]2(OC)O[C@@H]([n+]3cn(C)c4c(=O)[nH]c(N)nc43)[C@H](O)[C@@H]2O)O[C@H]1n1cnc2c(N)ncnc21 [compound 5227, reference compound] ... 94.9%

// moving on: another record for EE
Could you please provide reported EE for CO[C@@H]1[C@H](OP(=O)(O)OC[C@H]2O[C@@H](n3cnc4c(=O)[nH]c(N)nc43)[C@H](O)[C@@H]2O)[C@@H](COP(=O)(O)OP(=O)(O)OP(=O)(O)OC[C@H]2O[C@@H]([n+]3cn(C)c4c(=O)[nH]c(N)nc43)[C@H](O)[C@@H]2O)O[C@H]1n1cnc2c(N)ncnc21 [N-7113, reference compound] ? Thanks!
96.1%

###

I'd be grateful if you could share measured Increase relative to 5227 (in vitro transcription yield) for these entries.
Molecular target: T7 RNA polymerase (Escherichia phage T7, UniProt P00573)
Sequence (P00573 whole entry): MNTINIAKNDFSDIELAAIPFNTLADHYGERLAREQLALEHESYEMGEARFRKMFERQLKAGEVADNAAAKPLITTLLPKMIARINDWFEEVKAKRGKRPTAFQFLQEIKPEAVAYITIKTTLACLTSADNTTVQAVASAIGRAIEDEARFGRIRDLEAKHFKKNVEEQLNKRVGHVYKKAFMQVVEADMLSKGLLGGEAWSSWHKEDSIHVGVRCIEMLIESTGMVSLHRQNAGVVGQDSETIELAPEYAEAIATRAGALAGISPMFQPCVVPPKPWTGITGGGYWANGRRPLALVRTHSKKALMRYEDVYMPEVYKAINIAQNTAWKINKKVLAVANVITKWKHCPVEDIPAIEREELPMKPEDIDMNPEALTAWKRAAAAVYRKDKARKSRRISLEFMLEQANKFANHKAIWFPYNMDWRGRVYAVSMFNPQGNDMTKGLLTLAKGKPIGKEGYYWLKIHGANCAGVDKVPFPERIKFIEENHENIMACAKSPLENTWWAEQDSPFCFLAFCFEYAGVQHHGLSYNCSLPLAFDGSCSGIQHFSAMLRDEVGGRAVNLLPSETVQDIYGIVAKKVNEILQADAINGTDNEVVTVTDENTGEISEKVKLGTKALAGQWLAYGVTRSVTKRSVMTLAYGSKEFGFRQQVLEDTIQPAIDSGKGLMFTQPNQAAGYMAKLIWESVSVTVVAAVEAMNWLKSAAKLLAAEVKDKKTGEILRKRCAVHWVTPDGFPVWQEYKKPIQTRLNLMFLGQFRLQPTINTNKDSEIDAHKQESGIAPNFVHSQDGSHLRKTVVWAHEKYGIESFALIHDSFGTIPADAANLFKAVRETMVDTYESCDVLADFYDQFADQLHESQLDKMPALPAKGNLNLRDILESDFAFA
Experiment: In vitro transcription yield of mRNA using cap analogs
Format: biochemical
Conditions: relative to 5227
Give bare numbers, in %.

CO[C@@H]1[C@H](OP(=O)(O)OC[C@H]2O[C@@H](n3cnc4c(=O)[nH]c(N)nc43)[C@H](O)[C@@H]2O)[C@@H](COP(=O)(O)OP(=O)(O)OP(=O)(O)OC[C@@]2(CF)O[C@@H]([n+]3cn(C)c4c(=O)[nH]c(N)nc43)[C@H](O)[C@@H]2O)O[C@H]1n1cnc2c(N)ncnc21 ... 28.3

// moving on: another record for Increase relative to 5227 (in vitro transcription yield)
Could you please provide reported Increase relative to 5227 (in vitro transcription yield) for CO[C@@H]1[C@H](OP(=O)(O)OC[C@H]2O[C@@H](n3cnc4c(=O)[nH]c(N)nc43)[C@H](O)[C@@H]2O)[C@@H](COP(=O)(O)OP(=O)(O)OP(=O)(O)OC[C@H]2O[C@@H](C[n+]3cn(C)c4c(=O)[nH]c(N)nc43)[C@H](O)[C@@H]2O)O[C@H]1n1cnc2c(N)ncnc21 ? Thanks!
−34.4

###

Assay: Characterization of lipid nanoparticles encapsulating Fluc-mRNA prepared from different cap structures
Type: physicochemical
Details: encapsulation efficiency of LNP with Fluc-mRNA transcribed using the named cap analog
assay metric: EE (%)
Give bare numbers, in %.

Before answering, review these 5 worked examples.
COC1[C@H](n2cnc3c(N)ncnc32)O[C@H](COP(=O)(O)OP(=O)(O)OP(=O)(O)OC[C@@]23COC([C@H]([n+]4cn(C)c5c(=O)[nH]c(N)nc54)O2)[C@H]3O)[C@H]1OP(=O)(O)OCC1OC(n2cnc3c(=O)[nH]c(N)nc32)C(O)C1O (some centres unmarked) [Compound 14, reference compound] ... 94.2
CO[C@@H]1[C@H](OP(=O)(O)OC[C@H]2O[C@@H](n3cnc4c(=O)[nH]c(N)nc43)[C@H](O)[C@@H]2O)[C@@H](COP(=O)(O)OP(=O)(O)OP(=O)(O)OC[C@H]2O[C@@H]([n+]3cn(C)c4c(=O)[nH]c(N)nc43)[C@H](O)[C@@H]2C(F)F)O[C@H]1n1cnc2c(N)ncnc21 ... 97.7
CO[C@@H]1[C@H](OP(=O)(O)OC[C@H]2O[C@@H](n3cnc4c(=O)[nH]c(N)nc43)[C@H](O)[C@@H]2O)[C@@H](COP(=O)(O)OP(=O)(O)OP(=O)(O)OC[C@H]2OC([n+]3cn(C)c4c(=O)[nH]c(N)nc43)[C@H](NC(C)=O)[C@@H](O)[C@@H]2O)O[C@H]1n1cnc2c(N)ncnc21 (some centres unmarked) ... 95.3
CO[C@@H]1[C@H](OP(=O)(O)OC[C@H]2O[C@@H](n3cnc4c(=O)[nH]c(N)nc43)[C@H](O)[C@@H]2O)[C@@H](COP(=O)(O)OP(=O)(O)OP(=O)(O)OC[C@@]2(CF)O[C@@H]([n+]3cn(C)c4c(=O)[nH]c(N)nc43)[C@H](O)[C@@H]2O)O[C@H]1n1cnc2c(N)ncnc21 ... 97.2
CO[C@@H]1[C@H](OP(=O)(O)OC[C@H]2O[C@@H](n3cnc4c(=O)[nH]c(N)nc43)[C@H](O)[C@@H]2O)[C@@H](COP(=O)(O)OP(=O)(O)OP(=O)(O)OC[C@H]2O[C@@H]([n+]3cn(C)c4c(=O)[nH]c(N)nc43)[C@H](O)[C@]2(F)CN(C)C)O[C@H]1n1cnc2c(N)ncnc21 ... 95.7

Return reported EE values for all items listed beneath this line.
1. COC[C@]1(COP(=O)(O)OP(=O)(O)OP(=O)(O)OC[C@H]2O[C@@H](n3cnc4c(N)ncnc43)[C@H](OC)[C@@H]2OP(=O)(O)OC[C@H]2O[C@@H](n3cnc4c(=O)[nH]c(N)nc43)[C@H](O)[C@@H]2O)O[C@@H]([n+]2cn(C)c3c(=O)[nH]c(N)nc32)[C@H](O)[C@@H]1O
2. CCO[C@@H]1[C@H](OP(=O)(O)OC[C@H]2O[C@@H](n3cnc4c(=O)[nH]c(N)nc43)[C@H](O)[C@@H]2O)[C@@H](COP(=O)(O)OP(=O)(O)OP(=O)(O)OC[C@H]2O[C@@H]([n+]3cn(C)c4c(=O)[nH]c(N)nc43)[C@H](O)[C@@H]2O)O[C@H]1n1cnc2c(N)ncnc21 [CAP-2′O-ethyl, reference compound]
3. COC[C@@H]1[C@H](OP(=O)(O)OC[C@H]2O[C@@H](n3cnc4c(=O)[nH]c(N)nc43)[C@H](O)[C@@H]2O)[C@@H](COP(=O)(O)OP(=O)(O)OP(=O)(O)OC[C@H]2O[C@@H]([n+]3cn(C)c4c(=O)[nH]c(N)nc43)[C@H](O)[C@@H]2O)O[C@H]1n1cnc2c(N)ncnc21
4. CO[C@@H]1[C@H](OP(=O)(O)OC[C@H]2O[C@@H](n3cnc4c(=O)[nH]c(N)nc43)[C@H](O)[C@@H]2O)[C@@H](COP(=O)(O)OP(=O)(O)OP(=O)(O)OC[C@H]2O[C@@H]([n+]3cn(C)c4c(=O)[nH]c(N)nc43)[C@H](O)[C@@H]2C(C)NC(C)=O)O[C@H]1n1cnc2c(N)ncnc21 (some centres unmarked)
5. CO[C@@H]1[C@H](OP(=O)(O)OC[C@H]2O[C@@H](n3cnc4c(=O)[nH]c(N)nc43)[C@H](O)[C@@H]2O)[C@@H](COP(=O)(O)OP(=O)(O)OP(=O)(O)OC[C@H]2O[C@@H]([n+]3cn(C)c4c(=O)[nH]c(N)nc43)[C@H](O)[C@]2(C)C#N)O[C@H]1n1cnc2c(N)ncnc21
6. CO[C@@H]1[C@H](OP(=O)(O)OC[C@H]2O[C@@H](n3cnc4c(=O)[nH]c(N)nc43)[C@H](O)[C@@H]2O)[C@@H](COP(=O)(O)OP(=O)(O)OP(=O)(O)OC[C@H]2O[C@@H]([n+]3cn(C)c4c(=O)[nH]c(N)nc43)[C@H](O)[C@@H]2C(C)F)O[C@H]1n1cnc2c(N)ncnc21 (some centres unmarked)
7. CNc1ncnc2c1ncn2[C@@H]1O[C@H](COP(=O)(O)OP(=O)(O)OP(=O)(O)OC[C@H]2O[C@@H]([n+]3cn(C)c4c(=O)[nH]c(N)nc43)[C@H](O)[C@@H]2O)[C@@H](OP(=O)(O)OC[C@H]2O[C@@H](n3cnc4c(=O)[nH]c(N)nc43)[C@H](O)[C@@H]2O)[C@H]1OC [m6A, reference compound]

[94.3, 96.3, 96.1, 96.4, 95.7, 97.2, 93.8]

Return reported EE values for all items listed beneath this line.
1. COC(C)[C@H]1[C@@H](O)[C@H]([n+]2cn(C)c3c(=O)[nH]c(N)nc32)O[C@@H]1COP(=O)(O)OP(=O)(O)OP(=O)(O)OC[C@H]1O[C@@H](n2cnc3c(N)ncnc32)[C@H](OC)[C@@H]1OP(=O)(O)OC[C@H]1O[C@@H](n2cnc3c(=O)[nH]c(N)nc32)[C@H](O)[C@@H]1O (some centres unmarked)
2. COC[C@H]1[C@@H](O)[C@H]([n+]2cn(C)c3c(=O)[nH]c(N)nc32)O[C@@H]1COP(=O)(O)OP(=O)(O)OP(=O)(O)OC[C@H]1O[C@@H](n2cnc3c(N)ncnc32)[C@H](OC)[C@@H]1OP(=O)(O)OC[C@H]1O[C@@H](n2cnc3c(=O)[nH]c(N)nc32)[C@H](O)[C@@H]1O [HN3002, reference compound]

96.3
95.1

Source listed as patent US12576099B2.
